Catalogue of Bmax values
target: Recombinant human FAM19A5 protein (His-tagged) (human) (UniProt Q7Z5A7); assay: ELISA, N'-Term His; parameters: unit not given here

binder	Bmax
P1-A03 (antibody, V domains shown) VH: QSVEESGGRLVTPGTPLTLTCTVSGFSLSSDYMSWVRQAPGEGLEWIGIIYPSTTTYYASWAKGRFTISKTSSTTVELKMTSLTTEDTATYFCARGSNWSSGMNLWGPGTLVTVSS VL: ELVMTQTPPSLSASVGETVRIRCLASEDIYSGISWYQQKPEKPPTLLISGASNLESGVPPRFSGSGSGTDYTLTIGGVQAEDAATYYCLGGYSYSSTGLTFGAGTNVEIK	2.45
Anti-FAM19A5 (13F7) (antibody, V domains shown) VH: QVQLQEWGAGLLKPSETLSLTCAINAESFNGYSWTWIRQTPGKGLEWIGEISHFGSANYNPSLKSRATISADKSKNQFSLKLTSVTAVDTAVYYCARALRGTYSRFYYGMDVWGQGTTVTVSS VL: DIVMTQTPLSLPVAPGEPASISCRSSQSLLHSNGYNYLDWYVQKPGQPPQLLIYLGSNRASGVPDRFSGSGSGTDFTLKISRVEAEDVGVYYCMQARQTPLTFGGGTKVEIK	3.04
Anti-FAM19A5 (13B4) (antibody, V domains shown) VH: QVQLQESGPGLVKPSGTLSLNCAVSGGSISSSNWWSWVRQPPGKGLEWIGEIYHGGTTNYNPSLKGRVTMSVDKTKNQFSLRLSSVTAVDTAVYYCARWQLVGGLDVWGQGTTVTVSS VL: SYELTQPLSVSVSPGQTASITCSGDKLGNVYASWYQQKPGQSPTLVIYQDNKRPSGIPERFSGSNSGKTATLTISGTQALDEADYYCQAWDSSTAVFGGGTKLTVL	2.84
Anti-FAM19A5 (P2-A03) (antibody, V domains shown) VH: QSVEESGGRLVTPGTPLTLTCTVSGFSLNNYDMSWVRQAPGKGLEYIGFMDTDGSAYYATWAKGRFTISRTSTTVDLKMTSPTTEDTATYFCARRGSSYYGGIDIWGPGTPVTVSL VL: ELDLTQTPASVSEPVGGTVTIKCQASQSIGGNLAWYQQKPGQPPKLLIYRASTLASGVPSRFKGSGSGTDFTLTISDLECADAATYYCQSPAYDPAAYVGNAFGGGTELEIL	3.37

meta.source: patent US20250236663A1
